- SYSTEM NAME: recombinant Human Phosphodiesterase B2 (PDE4B2) (Homo sapiens, UniProt Q07343)
- Sequence (Q07343 1-564 isoform Q07343-2): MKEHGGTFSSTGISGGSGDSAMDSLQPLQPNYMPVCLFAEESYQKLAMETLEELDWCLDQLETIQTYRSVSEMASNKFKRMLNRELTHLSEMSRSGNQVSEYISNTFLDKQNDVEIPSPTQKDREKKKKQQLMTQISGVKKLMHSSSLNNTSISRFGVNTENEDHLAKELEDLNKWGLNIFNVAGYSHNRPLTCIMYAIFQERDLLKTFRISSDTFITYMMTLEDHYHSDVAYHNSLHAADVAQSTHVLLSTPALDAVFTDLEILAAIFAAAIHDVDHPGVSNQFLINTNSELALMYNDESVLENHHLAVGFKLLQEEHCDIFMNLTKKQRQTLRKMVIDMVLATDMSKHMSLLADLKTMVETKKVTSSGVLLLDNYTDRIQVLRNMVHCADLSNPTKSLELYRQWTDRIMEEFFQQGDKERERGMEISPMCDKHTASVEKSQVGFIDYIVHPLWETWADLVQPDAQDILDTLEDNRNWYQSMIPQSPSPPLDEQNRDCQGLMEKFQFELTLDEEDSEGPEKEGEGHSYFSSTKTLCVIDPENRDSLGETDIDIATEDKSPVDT
- PROTOCOL SUMMARY: Human Phosphodiesterase B2 Radiometric Assay (yttrium silicate SPA beads, [3H]cyclic AMP)
- Assay type: biochemical
- CONDITION DESCRIPTION: recombinant human PDE4B2, radiometric SPA assay, 8 nM [3H]cyclic AMP; read-out: PDE4B2 pIC50 (converted)
QUANTITY: IC50 (nM)

Problem: For CN(Cc1cc(O)ccc1-c1cccc(-n2c(=O)n([C@H]3CC[C@@H](NCc4cn5cc(F)ccc5n4)CC3)c(=O)c3cc(F)cnc32)c1)C1CC1 , what is its reported IC50?
Solution: 0.251

Problem: For O=c1c2cc(F)cnc2n(-c2cccc(-c3ccc(O)cc3CN3CCOCC3)c2)c(=O)n1[C@H]1CC[C@@H](NCC2CC2)CC1 , what is its reported IC50?
Solution: 6.31

Problem: For NCCNC(=O)c1cccc(-n2c(=O)n([C@H]3CC[C@@H](NC(=O)c4cn5ccccc5n4)CC3)c(=O)c3cc(F)cnc32)c1 , what is its reported IC50?
Solution: 39.8

Problem: For CN(C)CCN(C)Cc1ccc(-c2cccc(-n3c(=O)n([C@H]4CC[C@@H](NC(=O)C5(N(C)C)CC5)CC4)c(=O)c4cc(F)cnc43)c2)cc1 , what is its reported IC50?
Solution: 0.00794

Problem: For O=c1c2cc(F)cnc2n(-c2cccc(-c3ccc(CN4CCCOCC4)cc3)c2)c(=O)n1[C@H]1CC[C@@H](NCc2cn3cc(F)ccc3n2)CC1 , what is its reported IC50?
Solution: 0.251

[P] CN1CCCN(Cc2ccc(-c3cccc(-n4c(=O)n([C@H]5CC[C@@H](NC(=O)c6cc7c(o6)CCCC7=O)CC5)c(=O)c5cc(F)cnc54)c3)cc2)CC1
[Q] O=C(N[C@H]1CC[C@@H](n2c(=O)c3cc(F)cnc3n(-c3cccc(-c4ccc(CNC5CCNCC5)cc4)c3)c2=O)CC1)c1cn2cc(F)ccc2n1
Problem: Smaller IC50 value, P vs Q ? Write the label of whichever entry you select.
Solution: Q

[I] N[C@H]1CC[C@@H](n2c(=O)c3cc(F)cnc3n(-c3cccc(-c4ccc(O)cc4CN4CCNC(=O)CC4)c3)c2=O)CC1
[II] O=C(N[C@H]1CC[C@@H](n2c(=O)c3cc(F)cnc3n(-c3cccc(-c4ccc(CN5CCCNCC5)cc4)c3)c2=O)CC1)c1cc2ccccc2cn1
Problem: Smaller IC50 value, I vs II ? Write the label of whichever entry you select.
Solution: II

[a] CN(Cc1ccc(-c2cccc(-n3c(=O)n([C@H]4CC[C@@H](NC(=O)c5cn6cc(F)ccc6n5)CC4)c(=O)c4cc(F)cnc43)c2)cc1)C(C)(C)C
[b] CN(C)C1(C(=O)N[C@H]2CC[C@@H](n3c(=O)c4cc(F)cnc4n(-c4cccc(-c5ccc(CN6CCN(CCO)CC6)cc5)c4)c3=O)CC2)CC1
Problem: Smaller IC50 value, a vs b ? Write the label of whichever entry you select.
Solution: b
